Test system: SK-MEL-5
Run description: Growth inhibition of human SK-MEL-5 cells at 10 uM after 48 hrs by coulter counting
Assay type: functional
Recorded conditions: SK-MEL-5, 48 h, read-out: GI
compounds and their reported inhibition of growth at 10 µM

{"columns": ["Compound", "inhibition of growth at 10 µM"],
 "data": [
  ["COc1ccc(/C=C2\\CCCC3=C2N=C2SC=C(C)N2C3c2ccc(OC)c(OC)c2)cc1OC (stereo not given)", "> 10%"],
  ["C1=CN2C(=NC3=C(CCC/C3=C\\c3cccs3)C2c2cccs2)S1 (stereo not given)", "> 10%"],
  ["CCN1CC2=C(N=C3SC=CN3C2c2ccc(OC)cc2)/C(=C/c2ccc(OC)cc2)C1 (stereo not given)", "74.4%"],
  ["COc1ccc(/C=C2\\CCCC3=C2N=C2SC=CN2C3c2ccc(OC)c(OC)c2)cc1OC (stereo not given)", "> 10%"],
  ["CCN1CC2=C(N=C3SC=CN3C2c2ccc(OC)c(OC)c2)/C(=C/c2ccc(OC)c(OC)c2)C1 (stereo not given)", "60.9%"],
  ["CC1=CSC2=NC3=C(CCC/C3=C\\c3cccs3)C(c3cccs3)N12 (stereo not given)", "> 10%"],
  ["CCN1CC2=C(N=C3SC=C(C)N3C2c2ccc(OC)cc2)/C(=C/c2ccc(OC)cc2)C1 (stereo not given)", "> 10%"],
  ["CC1=CSC2=NC3=C(CCC/C3=C\\c3ccccc3)C(c3ccccc3)N12 (stereo not given)", "> 10%"],
  ["COc1cc(/C=C2\\CCCC3=C2N=C2SC=C(C)N2C3c2cc(OC)c(OC)c(OC)c2)cc(OC)c1OC (stereo not given)", "> 10%"],
  ["C1=CN2C(=NC3=C(CCC/C3=C\\c3ccccc3)C2c2ccccc2)S1 (stereo not given)", "> 10%"]
]}

Source listed as ChEMBL document CHEMBL1926614.
